Entries and their activity change values follow.
- experimental-target: Homeobox protein SIX1 (Homo sapiens) + Protein phosphatase EYA2 (Homo sapiens) (UniProt Q15475+O00167)
- Sequence (O00167 whole entry, looked up): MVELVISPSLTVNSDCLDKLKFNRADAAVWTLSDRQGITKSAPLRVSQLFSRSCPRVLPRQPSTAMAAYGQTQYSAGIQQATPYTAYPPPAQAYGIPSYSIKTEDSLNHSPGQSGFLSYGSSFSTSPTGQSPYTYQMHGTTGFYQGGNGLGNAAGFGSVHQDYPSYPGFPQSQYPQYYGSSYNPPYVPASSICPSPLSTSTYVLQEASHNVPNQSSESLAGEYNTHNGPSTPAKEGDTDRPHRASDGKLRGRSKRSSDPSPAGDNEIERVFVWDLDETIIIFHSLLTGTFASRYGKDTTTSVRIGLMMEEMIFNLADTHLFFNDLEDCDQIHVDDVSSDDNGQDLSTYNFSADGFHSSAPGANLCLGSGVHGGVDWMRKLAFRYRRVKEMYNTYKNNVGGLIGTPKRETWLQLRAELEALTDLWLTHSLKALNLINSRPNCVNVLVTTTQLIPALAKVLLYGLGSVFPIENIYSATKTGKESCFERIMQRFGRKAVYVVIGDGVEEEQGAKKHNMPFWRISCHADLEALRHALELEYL
- Sequence (Q15475 whole entry, looked up): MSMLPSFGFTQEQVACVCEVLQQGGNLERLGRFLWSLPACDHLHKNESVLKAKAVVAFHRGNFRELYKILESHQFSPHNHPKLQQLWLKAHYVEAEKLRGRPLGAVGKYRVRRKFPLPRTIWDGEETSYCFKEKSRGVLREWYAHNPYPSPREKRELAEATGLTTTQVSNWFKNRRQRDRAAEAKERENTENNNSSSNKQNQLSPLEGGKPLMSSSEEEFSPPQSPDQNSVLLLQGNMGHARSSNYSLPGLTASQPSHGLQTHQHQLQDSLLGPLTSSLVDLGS
- measurement-protocol: qHTS Assay for Inhibitors of the Six1/Eya2 Interaction; note: % is set by controls: 0 for no effect and ±100 for the full control effect
- condition-description: AlphaScreen GST-Six1/His-Eya2 binding, biochemical; hits give low values
The campaign covered roughly 360,000 compounds. About 2,000 (0.56%) were called active. Inconclusive results (about 2%) are left out. The sample as a whole holds a higher share of actives than the screen did.
parameter-measured: activity change (%)

1. CCCCCCCCN1C(=O)[C@H](CC(=O)NCc2cccc3ccccc23)C[C@@]2(C(=O)OC)CCCCC=C12: 0.0747
2. COc1ccc(S(=O)(=O)N[C@@H]2C=C[C@@H](CC(=O)N3CCc4ccccc4C3)O[C@@H]2CO)cc1: -3.17
3. Cc1cccc(C)c1NC(=O)C(c1cccc(F)c1)N1CCN(C)CC1 (centres undefined): 1.36
4. COc1ccc(Cc2nnc(SCC(=O)Nc3ccc(C)c(Cl)c3)[nH]c2=O)cc1: 6.59
5. C[C@H]1CN([C@@H](C)CO)C(=O)CCCn2nncc2CO[C@@H]1CN(C)Cc1ccc(Oc2ccccc2)cc1: 13.9
6. CC(=NNC(=O)c1ccc2nc[nH]c2c1)c1ccc(Br)cc1: 0.936
7. Cc1ccc(NC(=O)CSc2nn3c(=O)c(C)nnc3s2)cc1Cl: -81.7
8. COC(=O)C1=CN(c2c(C)cc(C)cc2C)C(N)=C(C#N)C1c1cccc(F)c1 (centres undefined): -17.6
9. Cc1ccc(NC(=O)CSc2nnc(CNC(=O)c3ccccc3F)o2)cc1Cl: 8.8

====

- experimental-target: Homeobox protein SIX1 (Homo sapiens) + Protein phosphatase EYA2 (Homo sapiens) (UniProt Q15475+O00167)
- measurement-protocol: qHTS Assay for Inhibitors of the Six1/Eya2 Interaction; note: % is set by controls: 0 for no effect and ±100 for the full control effect
- condition-description: AlphaScreen GST-Six1/His-Eya2 binding, biochemical; hits give low values
In all, about 360,000 compounds went through this assay and about 2,000 (0.56%) were called active. Another 2% or so got no clear call; they are omitted. The sample as a whole holds a higher share of actives than the screen did.
parameter-measured: activity change

1) O=C1COc2ccc(S(=O)(=O)NCCc3ccc(Cl)cc3)cc2N1: 6.96% (inactive)
2) C[C@H](NC(=O)[C@@H]1CCCN1C(=O)[C@@H]1CCCN1C(=O)c1ccccc1)c1ccccc1: 0.523% (inactive)
3) CC(C)(C)OC(=O)NCCCCCNC(=O)c1nc[nH]c1C(=O)NCc1ccccc1: -0.665% (inactive)
4) COc1ccc(C(C(=O)NCc2ccccc2)n2c(=O)c(-c3ccccc3)nc3ccccc32)cc1 (stereo not given): 0.529% (inactive)
5) O=C(C(NS(=O)(=O)c1cccc2nsnc12)c1ccccc1)N1CCN(c2ccccc2)CC1 (stereo not given): -0.046% (inactive)

====

- experimental-target: Homeobox protein SIX1 (Homo sapiens) + Protein phosphatase EYA2 (Homo sapiens) (UniProt Q15475+O00167)
- measurement-protocol: qHTS Assay for Inhibitors of the Six1/Eya2 Interaction; note: % is set by controls: 0 for no effect and ±100 for the full control effect
- condition-description: AlphaScreen GST-Six1/His-Eya2 binding, biochemical
Out of some 360,000 compounds screened, about 2,000 (0.56%) were called active. Not shown: some 2% with an inconclusive outcome. Rule as the data show it: active = activity change below about -65%; inconclusive = mostly about -30% to -63%; inactive = weaker than that. The entries come from a sample that favours actives as a whole.
Possible outcomes: label 1 for active, label 0 for inactive

1. COCCCn1cc(CN2CC(N(C)C)CS2(=O)=O)nn1 (centres undefined): label 0
2. Cc1cccc(NS(=O)(=O)c2ccc(C)c(C(=O)NCc3cccnc3)c2)c1: label 0
3. Cn1c(N)c(C(=O)COC(=O)c2cnc(Cl)c(Cl)c2)c(=O)n(C)c1=O: label 1
4. COc1ccc(OC)c(CN2C(=O)CCC2(C)c2nnnn2Cc2ccccc2)c1 (centres undefined): label 0
5. CCOC(=O)[C@]12CCCC=C1N(CCC1=CCCCC1)C(=O)[C@H](CC(=O)NCCCOC)C2: label 0
6. CN(Cc1ccccc1)C(=O)[C@@H]1CCCN1C(=O)[C@@H]1CCCN1C(=O)c1c(F)cccc1F: label 0
7. Cn1c(N)c(C(=O)COC(=O)COc2ccc(Cl)cc2)c(=O)n(C)c1=O: label 0
8. Cc1cccc(-n2cnc(C(=O)NNC(=S)Nc3ccccc3)c2)n1: label 1
9. COC(=O)[C@@]12C[C@@H](CC(=O)NCc3cccc(C(F)(F)F)c3)C(=O)N(Cc3ccco3)C1=CCC(C)(C)C2: label 0

====

- experimental-target: Homeobox protein SIX1 (Homo sapiens) + Protein phosphatase EYA2 (Homo sapiens) (UniProt Q15475+O00167)
- measurement-protocol: qHTS Assay for Inhibitors of the Six1/Eya2 Interaction; note: % is set by controls: 0 for no effect and ±100 for the full control effect
- condition-description: AlphaScreen GST-Six1/His-Eya2 binding, biochemical; hits give low values
In all, about 360,000 compounds went through this assay and about 2,000 (0.56%) were called active. Inconclusive results (about 2%) are left out. This is one part of a sample in which actives are shown more often than they occur.
Entries and their activity change values follow.
parameter-measured: activity change (%)

1. O=C(CNC(=O)c1cccnc1)N/N=C/c1cc(Br)c(O)c(Br)c1: -6.06
2. CCC(NC(=O)c1ccccc1NC(=O)c1ccccc1)C(=O)NNC(=O)CSc1nc2ccccc2o1 (stereo not given): -24.4
3. O=S1(=O)CCN(Cc2ccccc2)CC1: -0.459
4. COc1ccc(/C=N/NC(=O)C2CC2)c(OC)c1OC: 3.31
5. CC(C)C[C@H]1CNC(=O)C(=O)N1C[C@@H]1CCCN1C[C@H](Cc1ccccc1)N1C[C@H](CC(C)C)N(CC2CCCCCC2)C(=O)C1=O: -1.64
6. Cc1ccc(/C=N/NC(=O)CSc2nc3ccccc3o2)cc1: -87.1
7. COc1cccc(/C=N/Nc2ncc(C(F)(F)F)cc2Cl)c1O: -91.7
8. CCn1c(/C=N/NC(=O)c2ccc(OC)cc2)nc2ccccc21: -12.5
9. O=C(c1ncn2c1c(=O)[nH]c1ccccc12)N1CCc2ccccc2C1: -3.9
10. CCCCOCCCNC(=O)C[C@@H]1C[C@@]2(C(=O)OC)CCCCC=C2N(CCC2=CCCCC2)C1=O: -2.51
11. Oc1ccc(Br)cc1/C=N/Nc1ccccn1: -77.2
12. CCN(CC)CCn1c(/N=C/c2cc(Br)ccc2O)nc2ccccc21: 4.55
13. COc1cccc(/C=N\NC(=O)C2=NNC(=O)C2C)c1O (stereo not given): -90.9
14. O=C1c2cccc3cccc(c23)C(=O)N1CCCCCc1n[nH]c(=S)o1: -80.1
15. COc1ccccc1C(=O)NCCC(=O)N(C)Cc1cccnc1: 6.46
16. C=CCOc1ccccc1/C=N/NC(=O)Cc1ccccc1: -1.77
17. O=C(N/N=C/c1cccc(OC(=O)c2ccc([N+](=O)[O-])cc2)c1)c1cccnc1: -3.98
18. CN(C)C=NC(=O)c1cccn1-c1ncc(C(F)(F)F)cc1Cl: 7.6
19. COc1cccc(/C=N/NC(=O)c2[nH]nc3c2CCc2ccccc2-3)c1O: -65.7
20. CCOC(=O)c1c(C)oc2cc(Br)c(OCC(N)=O)cc12: 5.69

====

- experimental-target: Homeobox protein SIX1 (Homo sapiens) + Protein phosphatase EYA2 (Homo sapiens) (UniProt Q15475+O00167)
- measurement-protocol: qHTS Assay for Inhibitors of the Six1/Eya2 Interaction; note: % is set by controls: 0 for no effect and ±100 for the full control effect
- condition-description: AlphaScreen GST-Six1/His-Eya2 binding, biochemical; hits give low values
The whole screen tested about 360,000 compounds, of which about 2,000 (0.56%) were called active. Inconclusive results (about 2%) are left out. The sample holds actives, similar compounds and a random draw of the others, so the mix is not that of the screen.
Entries and their activity change values follow.
parameter-measured: activity change (%)

1. Cc1ccc(Nc2ncnc3c2cnn3C)c(C)c1: 8.85
2. Cc1ccc(CNC(=O)C2CCN(S(=O)(=O)c3ccc4nc5c(c(C(=O)O)c4c3)CC(C)CC5)CC2)cc1 (stereo unspecified): -65.1
3. CN1CCN(C(=O)c2ccc(NC(=O)c3ccc(Br)o3)cc2)CC1: 1.67
4. CC1CCCCC1NC(=O)COc1ccc(C#N)cc1 (stereo unspecified): -10.9
5. Oc1c(CN2CCN(c3ccc(F)cc3)CC2)cc(Cl)c2cccnc12: -81.4
6. Cc1cccc(NC(=O)c2cc(N3C(=O)CCC3=O)ccc2Cl)n1: 3.08
7. CC(NC(=O)c1ccco1)C(=O)Nc1nc(-c2ccccn2)cs1 (stereo unspecified): -83.1
8. Cc1cccc(N(CC(=O)N2CCCC2)S(C)(=O)=O)c1C: 7.01
9. Cc1cc(=O)oc2cc(OCC(=O)N3CCN(c4ccc(F)cc4)CC3)c(Cl)cc12: 3.08
10. COc1cc(N2CCCC2)c(OC)cc1/C=C(/C#N)c1cccc(Br)c1: -67
11. Cn1c(SCC(=O)Nc2ccc(Cl)cc2)nc(O)cc1=O: 7.12
